Measured unfolding enthalpy (calorimetric), listed per entry for reference.
B1: Lysozyme C, P61626 (parent)
chain: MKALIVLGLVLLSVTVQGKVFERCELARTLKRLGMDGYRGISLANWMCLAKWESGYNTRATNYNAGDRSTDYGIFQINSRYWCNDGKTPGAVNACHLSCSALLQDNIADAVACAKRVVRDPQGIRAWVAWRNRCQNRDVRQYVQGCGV

Variants of: B1
Details: Homo sapiens; pH 3.1; Thermal; DSC; glycine 0.05 M; reversible: yes; structure 1LZ1; whole UniProt chain shown
Express your answer in kcal/mol, writing the number without its unit.

Reference set (5 entries):
>>> print(df.to_string())
   variant_name                            measure  reported_result
0         I124V  unfolding enthalpy (calorimetric)             73.7
1          I77V  unfolding enthalpy (calorimetric)             75.4
2         V117A  unfolding enthalpy (calorimetric)             70.6
3         I107V  unfolding enthalpy (calorimetric)             87.3
4          V20A  unfolding enthalpy (calorimetric)             65.1

Note: attention shifts to another entry.
Query block: Give its unfolding enthalpy (calorimetric) value. Item: I74V
Result block: 74.4
